species on record: Rattus norvegicus; test: DrugMatrix - Regimen: Daily Repeat; type: toxicity, organism-based, Sprague-Dawley; parameters: regimen Daily Repeat, gender Male, age 6-8 weeks; conditions: in vivo, po, 0 mg/kg, 2184 h, tissue Blood, route oral GAVAGE, dose level Control, time 91 day, vehicle .5 % CMC

Structure Smiles: O=c1cc(-c2ccccc2)oc2c1ccc1ccccc12
ABSOLUTE EOSINOPHIL, cells/µL: 70

====

species on record: Rattus norvegicus; test: DrugMatrix - Regimen: Daily Repeat; assay type: toxicity, organism-based, Sprague-Dawley; parameters: regimen Daily Repeat, gender Male, age 6-8 weeks; conditions: in vivo, po, 2000 mg/kg, 72 h, tissue Plasma, route oral GAVAGE, dose level High, time 3 day, vehicle .5 % CMC
Collected CHOLESTEROL values appear next to each entry.

Compound: CC(C)[C@H](N)C(=O)OCCOCn1cnc2c(=O)[nH]c(N)nc21 [VALACYCLOVIR]
CHOLESTEROL: 118.67 mg/dL

Compound: NCCCC[C@H](N[C@@H](CCc1ccccc1)C(=O)O)C(=O)N1CCC[C@H]1C(=O)O [LISINOPRIL ANHYDROUS]
CHOLESTEROL: 71.67 mg/dL

Compound: NCC(=O)O [GLYCINE]
CHOLESTEROL: 57.33 mg/dL

Compound: CC(=O)O[C@]1(C(C)=O)CC[C@H]2[C@@H]3C=C(Cl)C4=CC(=O)CC[C@]4(C)[C@H]3CC[C@@]21C [CHLORMADINONE ACETATE]
CHOLESTEROL: 79.67 mg/dL

====

organism: Rattus norvegicus; assay: DrugMatrix - Regimen: Daily Repeat; format: toxicity, organism-based, Sprague-Dawley; design: regimen Daily Repeat, gender Male, age 6-8 weeks; settings: in vivo, po, 0 mg/kg, 120 h, tissue Blood, route oral GAVAGE, dose level Control, time 5 day, vehicle 100 % WATER
The molecules listed here are annotated with their ABSOLUTE LYMPHOCYTE.

Molecule: NC(=O)c1ncn([C@@H]2O[C@H](CO)[C@@H](O)[C@H]2O)n1
ABSOLUTE LYMPHOCYTE (CELLS/uL): 14288.5
--
Molecule: COc1ccc(C(CN(C)C)C2(O)CCCCC2)cc1 (centres undefined)
ABSOLUTE LYMPHOCYTE (CELLS/uL): 11134.17
--
Molecule: CC(C)(S)[C@@H](N)C(=O)O
ABSOLUTE LYMPHOCYTE (CELLS/uL): 10538
--
Molecule: Fc1ccc([C@@H]2CCNC[C@H]2COc2ccc3c(c2)OCO3)cc1
ABSOLUTE LYMPHOCYTE (CELLS/uL): 7918.33
--
Molecule: CNCCC=C1c2ccccc2CCc2ccccc21
ABSOLUTE LYMPHOCYTE (CELLS/uL): 13809
--
Molecule: NCC1(CC(=O)O)CCCCC1
ABSOLUTE LYMPHOCYTE (CELLS/uL): 10848.67
--
Molecule: CN1CCC[C@H]1c1cccnc1
ABSOLUTE LYMPHOCYTE (CELLS/uL): 13301.33
--
Molecule: O=C1NC(=O)C(c2ccccc2)(c2ccccc2)N1
ABSOLUTE LYMPHOCYTE (CELLS/uL): 13809
--
Molecule: CC1COc2c(N3CCN(C)CC3)c(F)cc3c(=O)c(C(=O)O)cn1c23 (centres undefined)
ABSOLUTE LYMPHOCYTE (CELLS/uL): 13301.33
--
Molecule: Nc1ccc(S(=O)(=O)Nc2ccnn2-c2ccccc2)cc1
ABSOLUTE LYMPHOCYTE (CELLS/uL): 12202.83
--
Molecule: Cn1cnc([N+](=O)[O-])c1Sc1ncnc2nc[nH]c12
ABSOLUTE LYMPHOCYTE (CELLS/uL): 8181
--
Molecule: NNC(=O)c1ccncc1
ABSOLUTE LYMPHOCYTE (CELLS/uL): 12797.33
--
Molecule: Cc1cc(NS(=O)(=O)c2ccc(N)cc2)no1
ABSOLUTE LYMPHOCYTE (CELLS/uL): 11134.17
--
Molecule: COc1cccc(C2(O)CCCCC2CN(C)C)c1 (centres undefined)
ABSOLUTE LYMPHOCYTE (CELLS/uL): 7918.33
--
Molecule: CN1CCN(C(=O)OC2c3nccnc3C(=O)N2c2ccc(Cl)cn2)CC1 (centres undefined)
ABSOLUTE LYMPHOCYTE (CELLS/uL): 7583.83
--
Molecule: CC1(C)S[C@@H]2[C@H](NC(=O)[C@H](N)c3ccc(O)cc3)C(=O)N2[C@H]1C(=O)O
ABSOLUTE LYMPHOCYTE (CELLS/uL): 8994.5
--
Molecule: Clc1ccc(C(c2ccccc2Cl)C(Cl)Cl)cc1 (centres undefined)
ABSOLUTE LYMPHOCYTE (CELLS/uL): 12577.83
--
Molecule: C[C@]12Cc3c[nH]nc3C[C@@H]1CC[C@@H]1[C@@H]2CC[C@@]2(C)[C@H]1CC[C@]2(C)O
ABSOLUTE LYMPHOCYTE (CELLS/uL): 7918.33
--
Molecule: CC(CCc1ccccc1)NCC(O)c1ccc(O)c(C(N)=O)c1 (centres undefined)
ABSOLUTE LYMPHOCYTE (CELLS/uL): 13539.33

# credit: ChEMBL document CHEMBL3885881
